Values compiled from patent US20230302148A1.

- assay system: T1, human GIP receptor (human, UniProt P48546 22-466)
- T1 sequence (looked up): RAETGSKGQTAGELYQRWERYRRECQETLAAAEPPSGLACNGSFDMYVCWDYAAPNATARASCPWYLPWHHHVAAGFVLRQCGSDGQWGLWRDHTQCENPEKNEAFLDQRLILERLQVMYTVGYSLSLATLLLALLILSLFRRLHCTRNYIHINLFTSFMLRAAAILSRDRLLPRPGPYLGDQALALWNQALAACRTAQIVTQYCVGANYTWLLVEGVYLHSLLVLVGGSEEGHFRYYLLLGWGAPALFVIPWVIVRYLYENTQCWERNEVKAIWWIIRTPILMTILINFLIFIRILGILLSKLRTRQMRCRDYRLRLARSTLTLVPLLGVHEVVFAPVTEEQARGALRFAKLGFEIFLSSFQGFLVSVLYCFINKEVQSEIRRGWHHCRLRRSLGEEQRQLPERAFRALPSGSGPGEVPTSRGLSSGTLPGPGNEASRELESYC
- assay summary: cell-based or functional assay
Bridges are numbered along the chain shown (N, C = ends). Where no end group is shown, it is not given here. [ ]: non-standard residue; d: D form. Aib = CC(C)(N)C(=O)O
test readout: In vitro activity relative to native peptide (%) vs. GIP

binder | endpoint value
H[Aib]QGTFTSDVSSYLLGQAAKQFIAWLVKGGGPSSGAPPPSC [triple agonist of SEQ ID NO: 3] | < 0.1%
H[Aib]QGTFTSDYSKYLDEKAAKEFVQWLLNTC (bridge 16-20) [triple agonist of SEQ ID NO: 29] | < 0.1%

Here is another binder to look at.
Field request: In vitro activity relative to native peptide (%) vs. GIP | item: Y[Aib]QGTFTSDYSKYLDEKRAKEFVQWLLCHHPSSGQPPPS (bridge 16-20) [triple agonist of SEQ ID NO: 95]
< 0.1%
